# system.name: ovine COX-2 (Ovis aries, UniProt P79208)
# Construct: purchased Cayman (USA)
# Sequence (P79208 17-603): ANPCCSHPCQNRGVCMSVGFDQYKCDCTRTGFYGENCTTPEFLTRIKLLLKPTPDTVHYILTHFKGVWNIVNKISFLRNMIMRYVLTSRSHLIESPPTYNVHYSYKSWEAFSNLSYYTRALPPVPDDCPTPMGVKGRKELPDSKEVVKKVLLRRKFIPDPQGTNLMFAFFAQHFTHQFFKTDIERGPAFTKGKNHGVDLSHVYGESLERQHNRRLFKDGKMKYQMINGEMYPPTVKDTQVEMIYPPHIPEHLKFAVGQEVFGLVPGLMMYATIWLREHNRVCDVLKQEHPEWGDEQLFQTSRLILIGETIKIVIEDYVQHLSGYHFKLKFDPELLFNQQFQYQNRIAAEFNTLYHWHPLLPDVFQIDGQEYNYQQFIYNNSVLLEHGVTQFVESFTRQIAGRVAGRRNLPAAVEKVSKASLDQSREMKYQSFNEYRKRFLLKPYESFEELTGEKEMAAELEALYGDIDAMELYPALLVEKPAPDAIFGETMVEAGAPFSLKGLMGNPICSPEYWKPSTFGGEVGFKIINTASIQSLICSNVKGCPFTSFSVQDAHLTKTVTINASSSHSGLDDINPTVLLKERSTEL
# method.description: Cyclooxygenase-2 inhibition study
# Type: biochemical
# condition.label: read-out: COX-2 inhibition (IC50)
readout.type: IC50 (µM)

Reference set (10 entries):
> print(dat)
                                    compound                               system.name  value
 1  COC(=O)CCCNC(=O)/C=C/c1ccc(OC(C)=O)cc1 [Compound 30b]  ovine COX-2 (Ovis aries, UniProt P79208)     50
 2  CCOC(=O)CNC(=O)/C=C/c1ccc(C#N)cc1 [Compound 26a]  ovine COX-2 (Ovis aries, UniProt P79208)   77.5
 3  CCOC(=O)CNC(=O)/C=C/c1ccc(Br)cc1 [Compound 14a]  ovine COX-2 (Ovis aries, UniProt P79208)   65.5
 4  CCOC(=O)CNC(=O)/C=C/C=C/c1ccccc1 [Compound 23a]  ovine COX-2 (Ovis aries, UniProt P79208)     35
 5                    O=C(O)/C=C/c1ccc(O)cc1  ovine COX-2 (Ovis aries, UniProt P79208)     62
 6  CCOC(=O)CNC(=O)/C=C/c1ccc(OC(C)=O)cc1 [Compound 30a]  ovine COX-2 (Ovis aries, UniProt P79208)     58
 7                   O=C(O)/C=C/c1ccc(Br)cc1  ovine COX-2 (Ovis aries, UniProt P79208)    100
 8  CCOC(=O)CNC(=O)/C=C/c1cccs1 [Compound 21a]  ovine COX-2 (Ovis aries, UniProt P79208)     55
 9  CCOC(=O)CNC(=O)/C=C/c1ccc2c(c1)OCO2 [Compound 20a]  ovine COX-2 (Ovis aries, UniProt P79208)     75
10  COC(=O)CCCNC(=O)/C=C/c1ccc(F)cc1 [Compound 27b]  ovine COX-2 (Ovis aries, UniProt P79208)     75

[P] COC(=O)CCCNC(=O)/C=C/c1ccc(O)c(O)c1 [Compound 28b]
[Q] COC(=O)CCCNC(=O)C=Cc1ccccc1 [Compound 22b]
[R] COC(=O)CCCNC(=O)/C=C/c1ccc(C#N)cc1 [Compound 26b]
[S] CCOC(=O)CNC(=O)/C=C/c1ccccc1 [Compound 22a]
Exam item: Let's sort these by IC50, smallest first. Go ahead? Form entry: ranked labels (order as requested).
Marked response: S, R, Q, P
(S: 5 µM, R: 32.5 µM, Q: 61 µM, P: 100 µM)
